// data source = PubChem BioAssay (NCI)

Test system: U251 CNS
assay_procedure: NCI-60 one-dose screen, 48 h (100 = growth as untreated, 0 = no growth, -100 = all killed)
particulars: 10 µM unless noted
About 83,000 compounds went through this panel and 20% of them were active in at least one assay; those are over-represented in the sample as a whole.
growth values by entry
Write it as a number; the unit % goes unstated.

These recorded examples may help you get a feel for the data.
Cn1cc(-c2cc3nc(-c4cn(C)c5ncc(Br)cc45)cc(N)n3n2)c2cc(F)ccc21 :: -26.1
O=C(c1ccc(Cl)cc1)C1[C@H](c2ccccc2Cl)[C@@H](c2ccccc2)NC12C(=O)Nc1ccccc12 (stereo not given in full) :: -26.4

The measured growth that Cc1ccc(-c2cc(-c3ccccc3)[nH]c(=O)c2C#N)cc1 showed for U251 CNS is 90.8

The measured growth that O=S(=O)(c1nc(-c2ccc(Br)cc2)oc1-c1ccc(Cl)cc1)N1CCCC(O)C1 (stereo not given) showed for U251 CNS is 64.8

The measured growth that CCN1C(=O)N(CC)C2NNC(Sc3c(C(=O)O)c4ccccc4n(CC(C)C)c3=O)=NC21 (stereo not given) showed for U251 CNS is 10.7

* * *

System: OVCAR-3 ovarian
assay_procedure: NCI-60 one-dose screen, 48 h (100 = growth as untreated, 0 = no growth, -100 = all killed)
particulars: 10 µM unless noted
About 83,000 compounds went through this panel and 20% of them were active in at least one assay; those are over-represented in the sample as a whole.
Binarize growth at 30%; below is rule met, at or above is rule not met.

N#Cc1cc(-c2ccnc(Nc3ccc(N4CCN(C5COC5)CC4)cc3)n2)ccc1N1CCCC1 :: rule not met
O=C(c1ccc(O)cc1)C1[C@H](c2ccccc2Br)[C@@H](c2ccccc2)NC12C(=O)Nc1ccccc12 (stereo partly drawn) :: rule met
COc1ccc(C(=O)NNC(=O)CSc2nc3sc4c(c3c(=O)n2-c2ccc(Cl)cc2)CCCC4)cc1 :: rule not met
COc1nc(N)ncc1-c1ccc2ncnc(N3CCc4cc(F)c(Cl)cc43)c2c1 :: rule met
CN1CCN(C(=O)CCN(C(=O)Oc2cc3c(c4ccccc24)[C@H](CCl)CN3C(=O)c2cc3cc(OCCCN4CCC4)ccc3[nH]2)[C@H]2CCSSC2)CC1 :: rule met
CCN1C(=O)N(CC)C2NNC(Sc3c(C(=O)O)c4ccccc4n(CC(C)C)c3=O)=NC21 (stereo not drawn) :: rule met
COc1ccc2c(c1)C(Sc1ccc(Br)cc1)c1c(nc(N)c(C#N)c1N)O2 (stereo not drawn) :: rule not met

State whether 30% exceeds growth recorded for S=C(NCCc1ccccc1)Nc1ccc(OCc2nc3ccc(Cl)cc3[nH]2)cc1 .
rule not met

* * *

Tested on: HCT-15 colon
assay_procedure: NCI-60 one-dose screen, 48 h (100 = growth as untreated, 0 = no growth, -100 = all killed)
particulars: 10 µM unless noted
The panel holds about 83,000 compounds, 20% with a hit somewhere; the sample as a whole holds those more often.
property: growth (%)
Write it as a number; the unit % goes unstated.

These recorded examples may help you get a feel for the data.
O=C(N/N=C/c1ccc(-c2cccc([N+](=O)[O-])c2)s1)c1[nH]c2ccc(Br)cc2c1-c1ccccc1 :: 84.9
CN(C)CCOc1ccc(C(=O)C2[C@H](c3ccc(Cl)cc3)[C@@H](c3ccccc3)NC23C(=O)Nc2ccc(Cl)cc23)cc1 (stereo partly specified) :: -91.5
O=C(N/N=C/c1c[nH]c2ccccc12)Nc1ccc(F)c(Cl)c1 :: 20.2
O=C(NNC(=O)c1ccc(OCc2nc3ccc(Cl)cc3[nH]2)cc1)Nc1ccc(Cl)c(Cl)c1 :: 98.9
Cn1cc(Nc2ncnc(-c3ccc(N4CCCC4)c(C#N)c3)n2)cn1 :: 40.8

Proceeding to the next compound to report its growth.
Please fill in: growth reported for N#Cc1ccc(C(=O)NNC(=O)CSc2nc3sc4c(c3c(=O)n2-c2ccc(Cl)cc2)CCCC4)cc1 = 51.2
